- TARGET OR TEST SYSTEM: human KDR on cells (human, UniProt P35968 20-1356)
- Sequence (P35968 20-1356): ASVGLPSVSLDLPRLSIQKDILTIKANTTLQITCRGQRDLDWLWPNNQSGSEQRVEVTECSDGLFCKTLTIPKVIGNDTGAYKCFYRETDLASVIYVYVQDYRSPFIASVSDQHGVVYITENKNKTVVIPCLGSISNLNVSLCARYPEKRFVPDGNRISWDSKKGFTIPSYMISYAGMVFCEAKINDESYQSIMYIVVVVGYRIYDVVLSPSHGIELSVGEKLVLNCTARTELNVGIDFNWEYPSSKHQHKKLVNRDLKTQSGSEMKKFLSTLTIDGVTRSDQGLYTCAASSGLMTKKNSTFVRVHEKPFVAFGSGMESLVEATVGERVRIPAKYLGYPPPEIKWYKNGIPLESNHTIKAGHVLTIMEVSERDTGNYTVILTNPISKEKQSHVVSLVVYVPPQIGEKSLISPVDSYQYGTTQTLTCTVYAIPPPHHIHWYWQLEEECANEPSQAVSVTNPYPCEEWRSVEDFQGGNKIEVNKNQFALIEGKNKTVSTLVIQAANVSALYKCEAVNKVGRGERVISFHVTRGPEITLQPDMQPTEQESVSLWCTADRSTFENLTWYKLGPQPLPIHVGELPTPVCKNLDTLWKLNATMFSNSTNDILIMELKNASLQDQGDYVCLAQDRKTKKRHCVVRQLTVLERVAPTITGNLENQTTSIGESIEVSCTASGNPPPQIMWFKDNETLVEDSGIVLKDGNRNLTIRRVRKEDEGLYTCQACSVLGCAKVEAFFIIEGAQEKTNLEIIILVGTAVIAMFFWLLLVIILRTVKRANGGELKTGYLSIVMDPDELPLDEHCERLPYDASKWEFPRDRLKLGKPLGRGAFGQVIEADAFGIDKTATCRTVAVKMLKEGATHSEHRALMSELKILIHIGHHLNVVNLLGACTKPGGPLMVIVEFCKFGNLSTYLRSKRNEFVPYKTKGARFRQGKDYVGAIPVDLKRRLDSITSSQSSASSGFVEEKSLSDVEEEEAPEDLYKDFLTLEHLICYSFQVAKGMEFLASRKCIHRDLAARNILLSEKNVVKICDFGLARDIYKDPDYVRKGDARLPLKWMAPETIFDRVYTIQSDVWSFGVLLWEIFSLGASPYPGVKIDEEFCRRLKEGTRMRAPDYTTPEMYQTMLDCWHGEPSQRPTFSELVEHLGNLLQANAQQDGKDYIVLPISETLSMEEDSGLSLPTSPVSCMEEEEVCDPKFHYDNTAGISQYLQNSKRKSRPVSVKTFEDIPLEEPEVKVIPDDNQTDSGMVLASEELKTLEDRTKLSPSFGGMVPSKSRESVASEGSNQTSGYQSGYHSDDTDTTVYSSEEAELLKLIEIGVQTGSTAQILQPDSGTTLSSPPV
- PROTOCOL DESCRIPTION: cell-based or functional assay
PROPERTY LABEL: % Inhibition (N = 1) of VEGF-C-mediated KDR activity, antibody 100 nM (%)
Give the quantity in %, number only.

Past entries and their recorded results:
Item 24B3 (antibody, V domains shown, Purified fully human monoclonal antibody from XenoMouse hybridoma (IgG2 or IgG4 strains); also called MAb 24B3) VH: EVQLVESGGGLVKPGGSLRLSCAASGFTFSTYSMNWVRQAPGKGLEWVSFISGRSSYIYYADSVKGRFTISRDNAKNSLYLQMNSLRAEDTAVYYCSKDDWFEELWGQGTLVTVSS VL: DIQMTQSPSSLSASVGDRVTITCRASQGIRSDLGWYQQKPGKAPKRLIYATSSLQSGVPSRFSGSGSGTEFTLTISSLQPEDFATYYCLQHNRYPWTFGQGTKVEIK has what recorded % Inhibition (N = 1) of VEGF-C-mediated KDR activity, antibody 100 nM?
67

Item 32F4 (antibody, V domains shown) VH: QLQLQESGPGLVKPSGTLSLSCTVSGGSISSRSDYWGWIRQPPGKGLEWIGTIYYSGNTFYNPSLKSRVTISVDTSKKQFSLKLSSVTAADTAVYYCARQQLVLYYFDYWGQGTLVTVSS VL: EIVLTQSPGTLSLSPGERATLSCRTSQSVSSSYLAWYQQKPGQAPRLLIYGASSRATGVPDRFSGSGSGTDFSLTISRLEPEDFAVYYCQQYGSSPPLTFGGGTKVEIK has what recorded % Inhibition (N = 1) of VEGF-C-mediated KDR activity, antibody 100 nM?
75

Item 31E11 (antibody, V domains shown) VH: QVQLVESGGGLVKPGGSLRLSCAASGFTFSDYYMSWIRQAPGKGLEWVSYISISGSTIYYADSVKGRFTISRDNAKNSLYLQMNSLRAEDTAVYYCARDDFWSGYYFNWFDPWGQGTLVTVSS VL: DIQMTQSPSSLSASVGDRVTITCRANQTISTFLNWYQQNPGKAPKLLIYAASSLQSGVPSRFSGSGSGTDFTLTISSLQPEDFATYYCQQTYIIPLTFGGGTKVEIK has what recorded % Inhibition (N = 1) of VEGF-C-mediated KDR activity, antibody 100 nM?
84

Would you kindly look at the next entry?
Item 33E1 (antibody, V domains shown) VH: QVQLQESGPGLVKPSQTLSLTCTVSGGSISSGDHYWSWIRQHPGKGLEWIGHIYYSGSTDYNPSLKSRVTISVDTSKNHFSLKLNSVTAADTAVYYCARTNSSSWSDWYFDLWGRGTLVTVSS VL: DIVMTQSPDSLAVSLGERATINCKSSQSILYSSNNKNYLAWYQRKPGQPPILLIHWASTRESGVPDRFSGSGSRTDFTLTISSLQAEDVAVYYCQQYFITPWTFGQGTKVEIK has what recorded % Inhibition (N = 1) of VEGF-C-mediated KDR activity, antibody 100 nM?
83
